# TESTED TARGET: UniProt Q8ILY1
# MEASUREMENT PROTOCOL: Fluorescence-based high-throughput DNA polymerase assay (molecular beacon), primary screen and dose-response
# Assay type: biochemical
# EXPERIMENTAL SETUP: DRC-2; 90'; concentration 10
Catalogue of % inhibition ApPOL 90' values

COMPOUND: O=[N+]([O-])c1ccc(/C=C/c2ccc3ccccc3n2)o1
TESTED TARGET: UniProt Q8ILY1
% inhibition ApPOL 90' [%]: 65

COMPOUND: Cc1ccc(C)c(CSc2nc(C3CCCCC3)c(C#N)c(=O)[nH]2)c1
TESTED TARGET: UniProt Q8ILY1
% inhibition ApPOL 90' [%]: 50

COMPOUND: COc1ccc2c(c1)C(c1ccccc1OC)CC(=O)O2 (stereo not shown)
TESTED TARGET: UniProt Q8ILY1
% inhibition ApPOL 90' [%]: 23

COMPOUND: O=C1c2ccccc2C(=O)N1Oc1ccc([N+](=O)[O-])c([N+](=O)[O-])c1
TESTED TARGET: UniProt Q8ILY1
% inhibition ApPOL 90' [%]: 17

----------
# TESTED TARGET: P. falciparum apicoplast DNA polymerase (Pf-apPOL) (Plasmodium falciparum, UniProt Q8ILY1)
# Sequence (Q8ILY1 entry or part of it): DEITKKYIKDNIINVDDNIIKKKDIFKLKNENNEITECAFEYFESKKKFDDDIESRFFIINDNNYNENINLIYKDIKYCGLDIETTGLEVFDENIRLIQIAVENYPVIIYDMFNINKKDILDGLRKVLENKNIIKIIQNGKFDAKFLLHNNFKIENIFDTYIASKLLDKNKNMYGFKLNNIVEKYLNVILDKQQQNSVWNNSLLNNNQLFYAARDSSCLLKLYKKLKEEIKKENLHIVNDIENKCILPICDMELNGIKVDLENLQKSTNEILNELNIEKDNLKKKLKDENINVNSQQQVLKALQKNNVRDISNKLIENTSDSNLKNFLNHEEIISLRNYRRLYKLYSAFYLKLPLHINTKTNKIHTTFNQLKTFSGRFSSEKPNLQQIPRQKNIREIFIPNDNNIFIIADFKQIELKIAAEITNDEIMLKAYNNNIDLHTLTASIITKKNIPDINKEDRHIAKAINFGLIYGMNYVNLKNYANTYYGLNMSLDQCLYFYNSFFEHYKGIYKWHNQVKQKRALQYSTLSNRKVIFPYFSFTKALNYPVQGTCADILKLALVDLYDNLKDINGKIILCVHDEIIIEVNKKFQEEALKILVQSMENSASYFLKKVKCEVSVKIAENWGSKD
# MEASUREMENT PROTOCOL: Fluorescence-based high-throughput DNA polymerase assay (molecular beacon), primary screen and dose-response;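 note: test concentration in µM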
# Format: biochemical
# EXPERIMENTAL SETUP: DRC-2; 90'; concentration 40

MOLECULE: Cl.NC(CO)C(=O)NNCc1ccc(O)c(O)c1O (stereo not shown)
% inhibition ApPOL 90' [%]: 67

MOLECULE: O=C(CSc1nnc(-c2ccco2)[nH]1)c1ccc(Cl)cc1
% inhibition ApPOL 90' [%]: -0.138

MOLECULE: CSC1=C(C#N)C(=C(C#N)C#N)NC(c2ccccc2)=N1 [Molecule 2, CSc1nc([nH]c(=C(C#N)C#N)c1C#N)c1ccccc1]
% inhibition ApPOL 90' [%]: 70

MOLECULE: CCOc1ccc(/C=C2\N=C(c3cc([N+](=O)[O-])cc([N+](=O)[O-])c3)OC2=O)cc1
% inhibition ApPOL 90' [%]: 79

----------
# TESTED TARGET: bacteriophage T4 DNA polymerase (Enterobacteria phage T4, UniProt P04415)
# Construct: made in house
# Sequence (P04415 whole entry): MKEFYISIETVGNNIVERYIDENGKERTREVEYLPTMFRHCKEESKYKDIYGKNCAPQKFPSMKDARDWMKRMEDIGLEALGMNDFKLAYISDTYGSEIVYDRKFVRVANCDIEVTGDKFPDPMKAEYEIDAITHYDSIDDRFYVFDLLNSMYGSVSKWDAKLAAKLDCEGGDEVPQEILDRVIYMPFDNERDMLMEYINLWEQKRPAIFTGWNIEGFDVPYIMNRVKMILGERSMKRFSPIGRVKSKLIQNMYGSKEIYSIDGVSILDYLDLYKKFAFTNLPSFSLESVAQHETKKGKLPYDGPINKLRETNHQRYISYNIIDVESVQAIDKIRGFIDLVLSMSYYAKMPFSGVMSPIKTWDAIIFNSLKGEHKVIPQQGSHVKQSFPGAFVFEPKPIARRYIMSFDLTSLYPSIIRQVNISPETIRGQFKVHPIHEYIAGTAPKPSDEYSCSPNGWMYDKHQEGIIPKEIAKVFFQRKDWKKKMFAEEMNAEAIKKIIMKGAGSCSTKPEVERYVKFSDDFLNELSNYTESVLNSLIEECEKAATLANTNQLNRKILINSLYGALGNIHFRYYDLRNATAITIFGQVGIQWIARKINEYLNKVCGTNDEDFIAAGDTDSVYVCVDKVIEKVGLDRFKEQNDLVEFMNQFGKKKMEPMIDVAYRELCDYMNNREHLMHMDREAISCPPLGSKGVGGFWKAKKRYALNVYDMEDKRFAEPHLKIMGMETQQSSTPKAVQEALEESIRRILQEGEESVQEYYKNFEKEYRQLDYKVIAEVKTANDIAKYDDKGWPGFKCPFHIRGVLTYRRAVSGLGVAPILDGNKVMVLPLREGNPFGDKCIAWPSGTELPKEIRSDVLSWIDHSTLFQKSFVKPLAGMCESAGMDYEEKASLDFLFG
# MEASUREMENT PROTOCOL: Counter-screen against bacteriophage T4 DNA polymerase
# Type: biochemical
# EXPERIMENTAL SETUP: DRC-2; 10'; concentration 10

COMPOUND: O=c1[nH]c2ccc([N+](=O)[O-])cc2c(-c2ccccc2)c1Sc1nc2ccccc2o1 [KU0067471]
% inhibition T4 10': 35%
//
COMPOUND: COc1ccc(CNC(=O)Cn2nc3c(c2NC(=O)Cc2cccs2)CSC3)cc1 [Molecule 55]
% inhibition T4 10': 26%
//
COMPOUND: CN(C)S(=O)(=O)Oc1ccc(-c2noc(-c3ccc(Oc4cc(Cl)cc(Cl)c4)o3)n2)cc1 [KU0263859]
% inhibition T4 10': 35%
//
COMPOUND: CCCCC(=O)N1CCc2c(nc3cc(-c4ccccc4Cl)[nH]n3c2=O)C1 [Molecule 37]
% inhibition T4 10': 3.42%
//
COMPOUND: O=C(NC(C(Cl)Cl)S(=O)(=O)c1ccccc1)c1ccccc1 (centres unmarked) [KU0045239]
% inhibition T4 10': -19%
//
COMPOUND: CCOC(=O)C1=C2c3cc(OC)c(OC)cc3CC(C)(C)N2C(=O)C1=O [KU0193659]
% inhibition T4 10': 23%
//
COMPOUND: Cc1ccc(C)n1-c1ccc(C(=O)NNC(=O)c2ccc3nccnc3c2)cc1 [Molecule 53]
% inhibition T4 10': 29%
//
COMPOUND: COc1ccc(-c2cc3nc4c(c(=O)n3[nH]2)CCN(C(=O)CCc2ccccc2)C4)cc1 [Molecule 17]
% inhibition T4 10': -38%
